experiment: physchem; details: aqueous buffer
quantity.measured: solubility

# input compound: O=C(NN1C(=O)[C@@H]2[C@@H]3C=C[C@@H]([C@H]4C[C@@H]34)[C@@H]2C1=O)c1ccc(C(F)(F)F)cc1 ; wanted: its solubility ~2 µg/mL
